Value source: paper PMC6981294

Tgt: T1, EVH1 domain of PPP4R3A (amino acids 2-117) (human, UniProt Q6IN85 2-117)
T1 sequence (looked up): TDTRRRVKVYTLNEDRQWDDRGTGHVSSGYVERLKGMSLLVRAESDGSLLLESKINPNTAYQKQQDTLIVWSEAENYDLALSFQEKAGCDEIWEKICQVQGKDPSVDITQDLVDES
Assay Comment: ITC
Measured Attribute: Kd (µM)

Previously resolved entries follow.
> print(dat)
                                     binder  measured.attribute  numeric.readout
1  DPDTELMPPPPPKRPHPL [MCE1 MxPP motif peptide]                  Kd             0.98
2      PFTFKVAAPPPS [model peptide P4: Ala]                  Kd               53

A: PFTAKVPAPPPS [model peptide P1: Ala]
B: DPDTELMAPPPPKRPHPL [MCE1 peptide MCE1-P2A]
Data request: I need your help: which of the pair A , B has higher Kd? Your choice should be expressed through its label.
Data returned: A
(A: 53 µM, B: 7.93 µM)
